- Procedure Summary: Cmax in ICR mouse plasma at 10 mg/kg, ip measured upto 8 hrs by LC-MS/MS analysis
- Format: ADME, organism-based
- Design: route intraperitoneal, dose 10 mg/kg, time <=8
Readout: Cmax (ng/mL)
Numeric only. Scale: ng/mL

Task: May I ask what Cmax has been recorded for CCNCCc1ccc(Cl)c(-c2ccccc2OC)c1.Cl ?
Result: 348

----------
Reported pKi values are given for each entry in this list.
- System: 5-hydroxytryptamine receptor 1A (Homo sapiens)
- Sequence (P08908 whole entry): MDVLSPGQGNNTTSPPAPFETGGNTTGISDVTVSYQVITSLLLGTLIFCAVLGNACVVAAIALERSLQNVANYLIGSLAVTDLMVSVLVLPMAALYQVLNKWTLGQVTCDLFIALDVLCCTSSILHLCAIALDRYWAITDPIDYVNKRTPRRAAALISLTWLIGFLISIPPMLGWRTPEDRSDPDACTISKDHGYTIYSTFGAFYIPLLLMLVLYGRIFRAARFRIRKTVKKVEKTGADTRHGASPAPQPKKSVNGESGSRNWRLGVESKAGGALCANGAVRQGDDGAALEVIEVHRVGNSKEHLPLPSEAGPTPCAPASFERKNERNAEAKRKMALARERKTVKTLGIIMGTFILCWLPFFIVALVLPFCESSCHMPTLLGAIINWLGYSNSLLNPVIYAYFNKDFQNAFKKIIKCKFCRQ
Expect pKi as a plain number equal to -log10 of the molar concentration.

> print(dat)
                               molecule  readout  data.value
1  CCCN(CCC)CCc1ccc(Cl)c(-c2ccccc2OC)c1      pKi        7.19
2     CCNCCc1ccc(Cl)c(-c2ccccc2OC)c1.Cl      pKi        7.28
3        COc1ccccc1-c1cc(CCN(C)C)ccc1Cl      pKi        6.55
4         CNCCc1ccc(Cl)c(-c2ccccc2OC)c1      pKi        6.55
5   CCCN(CCC)Cc1ccc(Cl)c(-c2ccccc2OC)c1      pKi        6.40

Task: For 5-hydroxytryptamine receptor 1A (Homo sapiens), provide pKi of CCCNCCc1ccc(Cl)c(-c2ccccc2OC)c1.Cl please.
Result: 6.85

Task: For 5-hydroxytryptamine receptor 1A (Homo sapiens), provide pKi of COc1ccccc1-c1cc(C2CCNC2)ccc1Cl (stereo not given) please.
Result: 7.02

Task: For 5-hydroxytryptamine receptor 1A (Homo sapiens), provide pKi of CCNCc1ccc(Cl)c(-c2ccccc2OC)c1 please.
Result: 6.08

Task: For 5-hydroxytryptamine receptor 1A (Homo sapiens), provide pKi of CCCCNCCc1ccc(Cl)c(-c2ccccc2OC)c1.Cl please.
Result: 6.66

Task: For 5-hydroxytryptamine receptor 1A (Homo sapiens), provide pKi of CCN(CC)CCc1ccc(Cl)c(-c2ccccc2OC)c1 please.
Result: 7.08

----------
As a worked illustration, we turn to Ki data collected for 5-hydroxytryptamine receptor 6 (Homo sapiens, UniProt P50406).

Examples with answers:
> print(dat)
                                   compound  readout  data.value
1        CCCNCCc1ccc(Cl)c(-c2ccccc2OC)c1.Cl       Ki     > 10 µM
2      CCCN(CCC)CCc1ccc(Cl)c(-c2ccccc2OC)c1       Ki     > 10 µM
3  COc1ccccc1-c1cc(C2CCN(C)C2)ccc1Cl (stereo unspecified)       Ki     > 10 µM
4            COc1ccccc1-c1cc(CCN(C)C)ccc1Cl       Ki        1 µM
5       CCCN(CCC)Cc1ccc(Cl)c(-c2ccccc2OC)c1       Ki     > 10 µM
6            CCCNCc1ccc(Cl)c(-c2ccccc2OC)c1       Ki      3.5 µM

Task: For 5-hydroxytryptamine receptor 6 (Homo sapiens, UniProt P50406), provide Ki of CCCCNCCc1ccc(Cl)c(-c2ccccc2OC)c1.Cl please.
Result: > 10 µM

Task: For 5-hydroxytryptamine receptor 6 (Homo sapiens, UniProt P50406), provide Ki of CNCCc1ccc(Cl)c(-c2ccccc2OC)c1 please.
Result: 0.74 µM

Task: For 5-hydroxytryptamine receptor 6 (Homo sapiens, UniProt P50406), provide Ki of CCN(CC)CCc1ccc(Cl)c(-c2ccccc2OC)c1 please.
Result: > 10 µM

Task: For 5-hydroxytryptamine receptor 6 (Homo sapiens, UniProt P50406), provide Ki of CCNCCc1ccc(Cl)c(-c2ccccc2OC)c1.Cl please.
Result: > 10 µM

Task: For 5-hydroxytryptamine receptor 6 (Homo sapiens, UniProt P50406), provide Ki of CCNCc1ccc(Cl)c(-c2ccccc2OC)c1 please.
Result: 1.4 µM
